protein stability index by entry:
B1: NR2F2 (parent)
chain: NIPFFPDLQITDQVALLRLTWSEL

- Variants of: B1
- assayMethodText: protein stability index of a GFP-peptide fusion (GPS, HEK-293T) (PSI 1-6); higher = more stable;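 note: lentivirally expressed fusions sorted by FACS into six bins by GFP to DsRed ratio, PSI derived from sequencing read proportions per bin multiplied by bin number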
- testContext: c terminus: a fixed tail appended
Answer using only a numeral; do not append any unit.

Recorded results for 10 variants are shown here.
{"primarySequence": "NIPFFPDLQITMQVALLRLTWSEL [D12M]", "protein stability index": 2.37}
{"primarySequence": "NIPFFPDLQITDQVALLRLSWSEL [T20S]", "protein stability index": 3.1}
{"primarySequence": "NIPFFPDLQPTDQVALLRLTWSEL [I10P]", "protein stability index": 2.2}
{"primarySequence": "NIPFFPDLQITDQVALLRLTSSEL [W21S]", "protein stability index": 2.36}
{"primarySequence": "NIPFFPDLQITDQVALLRLTHSEL [W21H]", "protein stability index": 2}
{"primarySequence": "NIPFFPDLQITFQVALLRLTWSEL [D12F]", "protein stability index": 2.42}
{"primarySequence": "NIPFSPDLQITDQVALLRLTWSEL [F5S]", "protein stability index": 2.16}
{"primarySequence": "NIPFFPDLQITDQVALERLTWSEL [L17E]", "protein stability index": 2.26}
{"primarySequence": "NIPFFPDLQITDQVALLRLFWSEL [T20F]", "protein stability index": 1.47}
{"primarySequence": "NIPFFPDLQITDQVALLRDTWSEL [L19D]", "protein stability index": 2.28}

Now consider the entry below.
Give protein stability index for the following variant: NIPFFPDLQIEDQVALLRLTWSEL [T11E]
2.06
